This collection of values is drawn from paper PMC11509546.

What ACE inhibitory activity IC50 (ACE kit-WST, colorimetric enzyme activity assay) was measured for each of the following?
Target: Angiotensin-I converting enzyme (UniProt P12821)
Sequence (P12821 30-1256): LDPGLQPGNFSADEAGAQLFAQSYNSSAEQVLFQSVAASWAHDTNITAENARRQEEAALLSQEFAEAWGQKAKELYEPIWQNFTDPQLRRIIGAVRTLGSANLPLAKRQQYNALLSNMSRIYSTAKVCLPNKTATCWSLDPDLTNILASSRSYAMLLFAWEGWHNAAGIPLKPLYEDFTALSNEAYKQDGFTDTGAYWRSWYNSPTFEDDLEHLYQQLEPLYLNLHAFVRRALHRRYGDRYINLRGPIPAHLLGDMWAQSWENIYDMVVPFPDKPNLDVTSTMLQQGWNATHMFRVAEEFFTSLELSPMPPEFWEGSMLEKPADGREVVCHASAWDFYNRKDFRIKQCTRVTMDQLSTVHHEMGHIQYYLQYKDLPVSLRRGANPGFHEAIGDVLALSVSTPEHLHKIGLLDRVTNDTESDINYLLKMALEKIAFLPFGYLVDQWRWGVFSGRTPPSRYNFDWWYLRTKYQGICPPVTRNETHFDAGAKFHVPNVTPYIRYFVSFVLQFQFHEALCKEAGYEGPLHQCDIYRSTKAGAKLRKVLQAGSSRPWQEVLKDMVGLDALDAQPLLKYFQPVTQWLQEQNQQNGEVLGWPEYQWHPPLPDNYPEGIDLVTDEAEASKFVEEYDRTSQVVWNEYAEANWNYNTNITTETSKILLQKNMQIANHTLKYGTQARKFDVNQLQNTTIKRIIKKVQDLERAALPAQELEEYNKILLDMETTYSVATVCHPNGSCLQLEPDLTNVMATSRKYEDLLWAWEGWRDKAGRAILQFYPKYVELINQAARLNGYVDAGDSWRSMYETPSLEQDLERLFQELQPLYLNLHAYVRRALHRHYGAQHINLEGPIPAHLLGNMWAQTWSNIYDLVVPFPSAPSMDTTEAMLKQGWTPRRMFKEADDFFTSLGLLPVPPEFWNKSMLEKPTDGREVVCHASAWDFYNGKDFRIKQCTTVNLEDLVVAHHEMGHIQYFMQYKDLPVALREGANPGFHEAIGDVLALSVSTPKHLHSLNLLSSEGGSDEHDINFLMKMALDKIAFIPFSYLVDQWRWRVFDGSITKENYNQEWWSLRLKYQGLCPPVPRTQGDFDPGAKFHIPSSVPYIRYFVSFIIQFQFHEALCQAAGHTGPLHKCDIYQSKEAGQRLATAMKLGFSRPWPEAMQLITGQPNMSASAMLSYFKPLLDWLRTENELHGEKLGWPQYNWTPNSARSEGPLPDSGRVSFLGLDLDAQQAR
Answer with the value and then the unit.

Asked: Recall and state the measured ACE inhibitory activity IC50 (ACE kit-WST, colorimetric enzyme activity assay) for "LGEW" .
Given back: 165 µg/mL

Asked: Identify measured ACE inhibitory activity IC50 (ACE kit-WST, colorimetric enzyme activity assay) corresponding to "NYER"
Given back: 107 µg/mL

Asked: Look up and report measured ACE inhibitory activity IC50 (ACE kit-WST, colorimetric enzyme activity assay) for this entry: "QFPVGR"
Given back: 23 µg/mL
